- Measured on: β2-adaptin (Homo sapiens)
- Construct: gene AP2B1; residues 700-937 StrepTagII used only for DSF
- Sequence (P63010 2-937): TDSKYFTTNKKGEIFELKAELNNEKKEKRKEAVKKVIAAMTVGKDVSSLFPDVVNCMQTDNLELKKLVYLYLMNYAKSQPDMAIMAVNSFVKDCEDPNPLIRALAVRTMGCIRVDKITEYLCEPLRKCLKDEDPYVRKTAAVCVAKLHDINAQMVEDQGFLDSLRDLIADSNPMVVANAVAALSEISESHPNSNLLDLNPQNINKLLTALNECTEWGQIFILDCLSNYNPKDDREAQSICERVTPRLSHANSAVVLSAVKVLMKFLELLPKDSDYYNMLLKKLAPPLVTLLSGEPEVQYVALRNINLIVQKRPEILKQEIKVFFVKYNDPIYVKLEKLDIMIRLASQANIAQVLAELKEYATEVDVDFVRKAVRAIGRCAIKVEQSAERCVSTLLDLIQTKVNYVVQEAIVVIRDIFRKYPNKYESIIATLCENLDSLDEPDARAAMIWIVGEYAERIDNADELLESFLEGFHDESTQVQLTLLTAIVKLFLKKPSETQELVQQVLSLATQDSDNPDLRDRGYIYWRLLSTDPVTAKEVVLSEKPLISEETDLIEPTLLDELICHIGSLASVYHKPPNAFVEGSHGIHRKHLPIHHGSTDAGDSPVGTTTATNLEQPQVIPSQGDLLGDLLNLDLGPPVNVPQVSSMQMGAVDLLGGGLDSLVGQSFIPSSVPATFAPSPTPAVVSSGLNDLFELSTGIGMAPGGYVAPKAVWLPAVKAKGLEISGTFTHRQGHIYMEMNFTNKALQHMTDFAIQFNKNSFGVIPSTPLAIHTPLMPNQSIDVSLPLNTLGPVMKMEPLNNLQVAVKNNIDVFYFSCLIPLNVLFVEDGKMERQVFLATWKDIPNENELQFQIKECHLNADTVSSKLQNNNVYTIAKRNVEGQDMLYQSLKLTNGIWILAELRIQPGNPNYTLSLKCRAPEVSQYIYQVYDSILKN
- Sequence (P49407 whole entry partner, the tested form may be a part): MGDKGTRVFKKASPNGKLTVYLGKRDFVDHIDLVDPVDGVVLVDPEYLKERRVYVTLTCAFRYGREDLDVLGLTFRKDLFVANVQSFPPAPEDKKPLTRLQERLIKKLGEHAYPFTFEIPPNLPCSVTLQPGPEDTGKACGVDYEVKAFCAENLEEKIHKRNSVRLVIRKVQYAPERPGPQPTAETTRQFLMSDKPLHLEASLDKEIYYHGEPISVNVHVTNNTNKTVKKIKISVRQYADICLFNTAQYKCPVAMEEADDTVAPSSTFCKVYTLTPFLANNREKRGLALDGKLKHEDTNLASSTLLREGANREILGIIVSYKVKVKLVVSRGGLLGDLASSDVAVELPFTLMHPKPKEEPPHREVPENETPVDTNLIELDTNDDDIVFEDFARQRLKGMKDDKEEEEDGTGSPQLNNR
- Assay info: differential scanning fluorimetry (CPM dye) on purified β2-appendage, dose-dependent Tm shift; supported by GST-β2-adaptin([…]) pull-down and cell BRET (IC50 […] for β-arrestin1, from cell BRET)
- Format: cell-based
Attribute measured: IC50

entry_smiles=Nn1cnc2scc(-c3ccc(Cc4ccccc4)cc3)c2c1=O measured_on="β2-adaptin (Homo sapiens)" attribute_measured=IC50 readout_value="19.1 µM"

Where these numbers come from: paper PMC5399295
